# testName: Evaluation of brain penetration properties
# Format: in vivo, BALB/cA mice
# conditionInfo: mouse, brain; 0.5 hours after oral 50 mg/kg/day, BALB/cA mice; read-out: Kp value (Compound concentration in brain/plasma)
reportedMetric: Kp at 0.5 h

INSERT INTO assay_data (smilesinput, reportedmetric, resultvalue) VALUES
  ('C=CC(=O)N1C[C@H](n2c(C#CC)c(C(=O)N[C@@H](c3ccccc3)C(F)(F)F)c3c(N)ncnc32)C[C@@H]1C', 'Kp at 0.5 h', 0.33),
  ('C=CC(=O)N1C[C@H](n2c(C#CC3CC3)c(C(=O)N[C@H](C)c3ccccc3)c3c(N)ncnc32)C[C@@H]1CC', 'Kp at 0.5 h', 0.39),
  ('C=CC(=O)N1C[C@H](n2c(C#CC)c(C(=O)N[C@H](C)c3ccccc3)c3c(N)ncnc32)C[C@@H]1CC', 'Kp at 0.5 h', 0.35);
